TEST PROTOCOL: enhancers of VCAM-1 display on endothelial cells, cell-based, plate reader, pooled HUVEC, TNFa stimulus (AID 455);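 as to augmentation: 0% = TNFa plus DMSO wells and 100% = a visually confirmed top hit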
CONDITION SUMMARY: HUVEC TNFa-induced VCAM-1 immunofluorescence; active compounds read high,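 tested at 5 µM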
Hit rate of the full screen: of about 10,000 compounds, about 20 (0.2%) were called active. Many of the other results were omitted from the sample, so actives are more common in it than they were.

{"columns": ["COMPOUND", "augmentation"],
 "data": [
  ["COc1ccc(C2SCC(=O)Nc3c2c(=O)[nH]n3C2CCCCCC2)cc1OC (centres undefined)", "inactive"],
  ["COc1ccccc1/C=C1/C(=N/O)C2CCN1CC2", "81.5% (active)"],
  ["Cc1cccc(N2CCc3c2nc2ccccc2c3N)c1", "inactive"],
  ["O=C(Cn1ncc2c3ccccc3n(Cc3ccc(F)cc3)c2c1=O)N1CCC2(CC1)OCCO2", "inactive"]
]}
